# Test system: CCRF-CEM
# Protocol Summary: The compound was tested for the antiviral activity against HIV from CEM-IW human lymphocyte
# Assay type: functional
# Condition Details: read-out: ED50 (the source's name)
Attribute Measured: pEC50
On this scale, pEC50 is minus log10 of a concentration expressed in M (mol/L).

Problem: Give the reported pEC50 for this compound. CN(C)/C=N\c1ccn(C2CC(F)C(CO)O2)c(=O)n1 (stereo unspecified)
Solution: 6.64

----------
# Tested on: CCRF-CEM
# Protocol Summary: The compound was tested for the cytotoxicity against HIV from CEM-IW human lymphocyte
# Type: functional, cell-based
Attribute Measured: IC50

Problem: Please report the measured IC50 for CC(C)N(/C=N\c1ccn(C2CC(F)C(CO)O2)c(=O)n1)C(C)C (centres undefined)
Solution: > 200 µM

Problem: Provide one value: measured IC50 of Nc1ccn(C2CC(F)C(CO)O2)c(=O)n1 (centres undefined)
Solution: > 3200 µM

Problem: Identify the reported IC50 for the following entry. CC(C)N(/C=N\c1ccn(C2CCC(CO)O2)c(=O)n1)C(C)C (centres undefined)
Solution: > 200 µM

Problem: Report measured IC50; entry is CN(C)/C=N\c1ccn(C2CC(F)C(CO)O2)c(=O)n1 (centres undefined)
Solution: > 200 µM

----------
# Protocol Summary: Half-life in potassium phosphate buffered saline(PBS) at 37 degree C.
# Format: ADME
Attribute Measured: log10 of half-life (log10 of the value in h)
log10 half-life, h

Problem: Given the compound O=c1nc(/N=C\N2CCOCC2)ccn1C1CCC(CO)O1 (configuration not stated) , write its reported log10 of half-life.
Solution: 0.59

Problem: Determine from records and report log10 of half-life for CCCN(/C=N\c1ccn(C2CC(F)C(CO)O2)c(=O)n1)CCC (configuration not stated)
Solution: 1.19

Problem: Consider the compound O=c1nc(/N=C\N2CCCC2)ccn1C1CCC(CO)O1 (configuration not stated) . State its measured log10 of half-life.
Solution: 0.33

Problem: Indicate the recorded log10 of half-life value for this compound: CC(C)N(/C=N\c1ccn(C2CC(F)C(CO)O2)c(=O)n1)C(C)C (configuration not stated)
Solution: 1.72

Problem: Identify log10 of half-life associated with the compound CCN(/C=N\c1ccn(C2CCC(CO)O2)c(=O)n1)CC (configuration not stated)
Solution: 0.94

Problem: State its log10 of half-life for this compound: O=c1nc(/N=C\N2CCCCC2)ccn1C1CC(F)C(CO)O1 (configuration not stated)
Solution: 0.80

Problem: Report log10 of half-life for O=c1nc(/N=C\N2CCCC2)ccn1C1CC(F)C(CO)O1 (configuration not stated)
Solution: 0.41

Problem: Find the measured log10 of half-life of CN(C)/C=N\c1ccn(C2CC(F)C(CO)O2)c(=O)n1 (configuration not stated) and report it.
Solution: 0.67

Problem: Respond only with log10 of half-life recorded for O=c1nc(/N=C\N2CCCCC2)ccn1C1CCC(CO)O1 (configuration not stated)
Solution: 0.81

Problem: Complete the entry with log10 of half-life for CCN(/C=N\c1ccn(C2CC(F)C(CO)O2)c(=O)n1)CC (configuration not stated)
Solution: 1.01

Problem: Supply recorded log10 of half-life for O=c1nc(/N=C\N2CCOCC2)ccn1C1CC(F)C(CO)O1 (configuration not stated) here.
Solution: 0.57

Problem: Respond only with log10 of half-life recorded for CCCN(/C=N\c1ccn(C2CCC(CO)O2)c(=O)n1)CCC (configuration not stated)
Solution: 1.12

----------
# Protocol Summary: Half-life in potassium phosphate buffered saline (PBS) at 37 degree C(0% serum solution).
# Assay type: ADME
Attribute Measured: half-life (h)
Reply with just the number (in h).

Problem: Note down half-life recorded for CC(C)N(/C=N\c1ccn(C2CCC(CO)O2)c(=O)n1)C(C)C (stereo unspecified)
Solution: 47.5

----------
Consider the following molecules; for each one, report its solubility.
# Protocol Summary: Water solubility of the compound.
# Assay type: ADME
# Condition Details: read-out: S
Value expressed in mg/mL; do not type the unit.

Problem: Give reported solubility value for Nc1ccn(C2CC(F)C(CO)O2)c(=O)n1 (centres undefined)
Solution: 15

Problem: Identify solubility associated with the molecule Nc1ccn([C@H]2CC[C@@H](CO)O2)c(=O)n1
Solution: 78

Problem: Please give the documented solubility of CC(C)N(/C=N\c1ccn(C2CC(F)C(CO)O2)c(=O)n1)C(C)C (centres undefined)
Solution: 25

----------
# Protocol Summary: pKa value of the compound.
# Type: physicochemical
Please go through the items and note down their pKa.
Could you respond with only the numeric value?

Problem: Note down pKa recorded for Nc1ccn([C@H]2CC[C@@H](CO)O2)c(=O)n1 [ZALCITABINE]
Solution: 4.42

Problem: Give reported pKa value for Nc1ccn(C2CC(F)C(CO)O2)c(=O)n1 (centres undefined)
Solution: 4.22

Problem: Kindly indicate its recorded pKa. Item: CC(C)N(/C=N\c1ccn(C2CC(F)C(CO)O2)c(=O)n1)C(C)C (centres undefined)
Solution: 5.13

Problem: Return reported pKa. Input compound: CC(C)N(/C=N\c1ccn(C2CCC(CO)O2)c(=O)n1)C(C)C (centres undefined)
Solution: 5.28

----------
Would you mind telling me the reported P of each entry?
# Protocol Summary: Partition coefficient (P)
# Condition Details: octanol/water
// no unit string in output, number only

Problem: Read off the recorded P for O=c1nc(/N=C\N2CCCC2)ccn1C1CCC(CO)O1 (stereo not drawn)
Solution: -0.467

Problem: Read off the recorded P for CN(C)/C=N\c1ccn(C2CCC(CO)O2)c(=O)n1 (stereo not drawn)
Solution: -0.951

Problem: Please report P for the following molecule: CCN(/C=N\c1ccn(C2CC(F)C(CO)O2)c(=O)n1)CC (stereo not drawn)
Solution: 0.227

Problem: For the molecule O=c1nc(/N=C\N2CCOCC2)ccn1C1CCC(CO)O1 (stereo not drawn) , give its measured P value.
Solution: -0.967

Problem: Please indicate P recorded for CC(C)N(/C=N\c1ccn(C2CCC(CO)O2)c(=O)n1)C(C)C (stereo not drawn)
Solution: 0.724

Problem: Fill in P for record O=c1nc(/N=C\N2CCCCC2)ccn1C1CC(F)C(CO)O1 (stereo not drawn)
Solution: 0.358

Problem: Give me measured P, please, for this molecule: O=c1nc(/N=C\N2CCOCC2)ccn1C1CC(F)C(CO)O1 (stereo not drawn)
Solution: -0.676

Problem: Provide measured P value, entry: CCN(/C=N\c1ccn(C2CCC(CO)O2)c(=O)n1)CC (stereo not drawn)
Solution: -0.059

Problem: Return P (reported value) for this molecule: CCCN(/C=N\c1ccn(C2CCC(CO)O2)c(=O)n1)CCC (stereo not drawn)
Solution: 0.948

Problem: Kindly indicate its recorded P. Item: O=c1nc(/N=C\N2CCCCC2)ccn1C1CCC(CO)O1 (stereo not drawn)
Solution: 0.057

Problem: Please give the documented P of O=c1nc(/N=C\N2CCCC2)ccn1C1CC(F)C(CO)O1 (stereo not drawn)
Solution: -0.162

Problem: Return value of P for input Nc1ccn(C2CC(F)C(CO)O2)c(=O)n1 (stereo not drawn) , no commentary.
Solution: -0.893

Problem: Identify measured P corresponding to CN(C)/C=N\c1ccn(C2CC(F)C(CO)O2)c(=O)n1 (stereo not drawn)
Solution: -0.64

Each recorded value in this set is attributed to ChEMBL document CHEMBL1126057.
